- experimentalSystem: SrtA (Staphylococcus aureus, UniProt Q2FV99)
- Construct: purchased Anaspec, San Jose, CA, USA
- Sequence (Q2FV99 whole entry): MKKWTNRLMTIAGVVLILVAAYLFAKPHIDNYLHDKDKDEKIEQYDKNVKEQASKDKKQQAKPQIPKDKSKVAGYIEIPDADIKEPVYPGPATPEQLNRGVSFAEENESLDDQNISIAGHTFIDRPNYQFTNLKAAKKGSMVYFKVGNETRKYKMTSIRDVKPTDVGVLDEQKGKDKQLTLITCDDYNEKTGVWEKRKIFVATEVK
- assayRemarks: Sortase A activity assay (FRET, SensoLyte 520 kit)
- Type: biochemical, S. aureus
Answer condition not met if inhibition at 500 µM is under 20%, and condition met if it is 20% or more.

Does the compound O=c1c(-c2ccc(O)cc2)coc2cc(O)cc(O)c12 have recorded inhibition at 500 µM that is 20% or more?
condition not met

Lookup C[C@@H]1O[C@@H](OC[C@H]2O[C@@H](Oc3c(-c4ccc(OCCO)c(OCCO)c4)oc4cc(OCCO)cc(O)c4c3=O)[C@H](O)[C@@H](O)[C@@H]2O)[C@H](O)[C@H](O)[C@H]1O
condition met

Lookup C[C@@H]1O[C@@H](OC[C@H]2O[C@@H](Oc3c(-c4ccc(O)c(O)c4)oc4cc(O)cc(O)c4c3=O)[C@H](O)[C@@H](O)[C@@H]2O)[C@H](O)[C@H](O)[C@H]1O [Rutin trihydrate]
condition met

Lookup COc1cc2c(cc1OC)-c1cc3ccc(OC)c(OC)c3c[n+]1CC2 [Palmatine chloride]
condition met
